tested on: NCI-H226 lung; experiment: NCI-60 one-dose screen, 48 h (100 = growth as untreated, 0 = no growth, -100 = all killed); conditions: 10 µM unless noted
About 83,000 compounds went through this panel and 20% of them were active in at least one assay; those are over-represented in the sample as a whole.
// returns 0.0 unless growth is strictly below 60%, in which case 1.0

>>> print(df.to_string())
                                   molecule  tested_target  assigned_label
0  C=CC(=O)N1CCC[C@@H](n2nc(-c3ccc(Oc4ccccc4)cc3)c3c(N)ncnc32)C1  NCI-H226 lung             1.0

Given the entry `c1ccc2c(c1)CCN(NCCN1CCCC1)C2` , would its reported growth be below 60%?
0.0

Is 60% strictly greater than the molecule's reported growth? molecule: Nc1cc2c(cc1Br)-c1c(C(=O)O)cccc1C2O (configuration not stated)
0.0

---

system: CCRF-CEM leukemia; assay: NCI-60 one-dose screen, 48 h; conditions: 10 µM unless noted
This is part of a sample that, as a whole, favours compounds with a hit. Of some 83,000 tested, about 20% had one in any assay. Activity calls are given as the source filed them. Rule for the calls: active = growth percent below 10; inactive = the rest.
Answer with one of the outcomes given here: 1 (active), 0 (inactive)

>>> df
                                   compound  assigned_label
0  COc1ccc2c(CCC(c3ccccc3)c3ccccc3)c3[n+](cc2c1OC)CCc1cc2c(cc1-3)OCO2               1
1  CC(=O)OC1Oc2ccccc2-c2oc(=O)c(-c3cc4ccc(N(C)C)cc4oc3=O)cc21 (centres undefined)               1
2  O=c1[nH]c([C@@H]2CCCN2)nc2c1oc1ccc(Cl)cc12               0
3  Cc1cccc(Cl)c1NC(=O)c1cnc(Nc2cc(N3CCOCC3)cc(S(C)(=O)=O)c2)s1               0
4  C=CC(=O)Nc1cc(Nc2nccc(-c3cn(C)c4ccccc34)n2)c(OC)cc1N(C)CCN(C)C               1
5  CN1C/C=C\CCOc2cccc(c2)-c2ccnc(n2)Nc2cccc(c2)C1               1
6  COc1cc(C(=O)NNC(=O)c2ccc(NC(=O)CCl)cc2)cc(OC)c1OC               0
7      COc1cc2cc(NCc3ccc(F)cc3)nc(C)c2cc1OC               0
8  CN1CCN(CCOc2cc(OC3CCOCC3)c3c(Nc4c(Cl)ccc5c4OCO5)ncnc3c2)CC1               0
9  Cc1cnc(Nc2ccc(OCCN3CCCC3)cc2)nc1Nc1cccc(S(=O)(=O)NC(C)(C)C)c1               1

Write down the call the test reported for this compound. Item: `OCCNC(=S)Nc1ccc(-c2nc(N3C[C@H]4CC[C@@H](C3)O4)c3cccn3n2)cc1`
0

Hi, do you know how `COc1cc(-c2cc(-c3ccc(Nc4ccnc5cc(Cl)ccc45)cc3)nc(N3CCOCC3)n2)cc(OC)c1OC` came out in this test?
1

Could you kindly confirm the outcome this assay logged for `CN(C[C@@H]1COCCO1)S(=O)(=O)Nc1ccc2ccc3ncc(-c4cnn(C)c4)cc3c(=O)c2c1` ?
0

What was the test verdict on `O=C(O)c1ccc(Nc2ncc3c(n2)-c2ccc(Cl)cc2C(c2c(F)cccc2F)=NC3)cc1` ?
0

---

System: NCI-H460 lung
Experiment: NCI-60 one-dose screen, 48 h (100 = growth as untreated, 0 = no growth, -100 = all killed)
Conditions: 10 µM unless noted
Description: Growth inhibition of the NCI-H460 human Non-Small Cell Lung tumor cell line is measured as a screen for anti-cancer activity. Cells are grown in 96 well plates and exposed to the test compound for 48 hours. Compounds are tested at a single concentration, which is 10^-5 M for most compounds. The reported endpoint is percent growth (GI% or GIPRCNT), where numbers from 0 - 100% represent growth inhibition, and numbers from -100% - 0 represent cell death. […]
The panel holds about 83,000 compounds, 20% with a hit somewhere; the sample as a whole holds those more often. Active and inactive are the calls of the source. The calls were made as follows: active = growth percent below 10; inactive = the rest.
READOUT_KIND: growth

>>> print(df.to_string())
                                smiles_data  tested_target  readout_kind       test_result
0  COc1cc2ncnc(Nc3cccc(Cl)c3F)c2cc1OC(=O)N1CCN(C)C[C@H]1C  NCI-H460 lung        growth  90.2% (inactive)
1    O=C(NC[C@H](O)CO)c1ccncc1Nc1ccc(I)cc1F  NCI-H460 lung        growth  53.2% (inactive)

Please go through the list and note growth for each compound.
1. Cc1cc(C(=O)Nc2cc(Oc3ccc4nc(NC(=O)C5CC5)cn4n3)ccc2C)n(C)n1
2. COc1cc(-c2cc(-c3ccc(Nc4ccnc5cc(Cl)ccc45)cc3)nc(N3CCOCC3)n2)cc(OC)c1OC

1: 18.9% (inactive); 2: -43.9% (active)

Report measured growth; entry is `COC(=O)[C@@H](C)CNS(=O)(=O)N(c1cc(C(F)(F)F)cc(C(F)(F)F)c1)C1CCN(Cc2ccc(F)cc2)CC1`
62.3% (inactive)

---

test system: SW-620 colon; assay: NCI-60 one-dose screen, 48 h (100 = growth as untreated, 0 = no growth, -100 = all killed); settings: 10 µM unless noted
Compounds without any hit were thinned out: in the full panel of roughly 83,000, 20% have a hit.
Kindly supply the reported growth values for the records listed here.
One number for each entry, in %.

The examples below pair each entry with its known result.
COMPOUND	READOUT_UNITS	growth
COC(=O)[C@]12CC[C@@H](C)[C@H](C)[C@@H]1C1=CC[C@@H]3[C@@]4(C)C(C#N)=CC(C)=C4CC[C@@]3(C)[C@]1(C)CC2	%	87.2
Fc1ccc(NCc2cn(-c3ccccc3)nc2-c2ccc(OCc3ccccc3)cc2)cc1Cl	%	108

Hello, I would appreciate it if you could give growth for each entry below.
1. CC[C@@H]1C(=O)N(C)c2cnc(Nc3ccc(C(=O)NC4CCC(N5CCN(CC6CC6)CC5)CC4)cc3OC)nc2N1C(C)C (some centres undefined)
2. Nc1ccc(S(=O)(=O)O)c2cc(S(=O)(=O)O)cc(O)c12
3. COCc1c(-c2ccc(NC(=O)Nc3cc(C(F)(F)F)ccc3F)c(F)c2)c2c(N)ncnn2c1CN1CCOCC1
4. CCN(CCN(C)C)C(=O)CNCc1cc(C(N)=O)ccn1
5. CCN(CCO)CCCOc1ccc2c(Nc3cc(CC(=O)Nc4cccc(F)c4)[nH]n3)ncnc2c1
6. COc1ccc(-c2cc3c(C)nc(N)nc3n(C3CCC(OCCO)CC3)c2=O)cn1 (centres undefined)
7. CC(=O)C1CC(C)CCC1C(C)C (centres undefined)

1. 12.2
2. 107
3. -0.244
4. 109
5. 15.6
6. 7.56
7. 106

Hi there! I need growth for each item below, if you can.
1. c1cc(OCCN2CCCCC2)cc(-c2n[nH]c3ccc(-c4ncn[nH]4)cc23)c1
2. O=C(O)c1ccc2c(c1)nc(Nc1cccc(Cl)c1)c1ccncc12

1: 35.6; 2: 6.63

For each of the compounds below, state growth.
1. COc1ccc(Cl)c(Nc2nc3ccccc3nc2NS(=O)(=O)c2cccc(NC(=O)C(C)(C)N)c2)c1
2. O=c1sn(-c2cccc3ccccc23)c(=O)n1Cc1ccccc1
3. CCc1nc2cc(/C=C/C(=O)NO)ccc2c(=O)n1CCc1ccc(OC)cc1

1: 65.7; 2: 110; 3: 5.44

---

Kindly state growth for each of the entries shown.
system: SK-OV-3 ovarian; test: NCI-60 one-dose screen, 48 h (100 = growth as untreated, 0 = no growth, -100 = all killed); settings: 10 µM unless noted
About 83,000 compounds went through this panel and 20% of them were active in at least one assay; those are over-represented in the sample as a whole.
Numbers only, in %.

>>> print(df.to_string())
                                smiles_data  test_result
0  CCc1nc2cc(/C=C/C(=O)NO)c(F)cc2c(=O)n1CCc1ccccc1        -4.18
1  Cc1cc(Nc2cc(N3CCN(C)CC3)nc(/C=C/c3ccccc3)n2)n[nH]1         3.69
2  CC(C)CC(=O)Nc1n[nH]c2c1CN(C(=O)C1CCN(C)CC1)C2(C)C        -1.71

State recorded growth for all listed compounds.
1. O=C(Cn1c(=O)ccn(CCCCCCCCOc2ccc(Br)cc2)c1=O)Nc1ccc(Oc2ccc(Cl)cc2)cc1
2. c1cc[n+](Cc2c3ccccc3cc3c2ccc2ccccc23)cc1
3. O=C(NC1CCNCC1)c1[nH]ncc1NC(=O)c1c(Cl)cccc1Cl
4. Cc1nc(NC(=O)N2CCC[C@H]2C(N)=O)sc1-c1ccnc(C(C)(C)C(F)(F)F)c1
5. CN(C)C/C=C/C(=O)Nc1cc2c(Nc3ccc(F)c(Cl)c3)ncnc2cc1O[C@H]1CCOC1
6. COc1cc(Nc2ncc3c(n2)-c2ccc(Cl)cc2C(c2c(F)cccc2OC)=NC3)ccc1C(=O)O

[65.3, 87.9, 7.3, -25.6, -15.1, 61.6]
